molecular target: UniProt P35372; experiment: Displacement of [125I]IOXY from human recombinant mu opioid receptor expressed in CHO cells
Sequence (P35372 whole entry): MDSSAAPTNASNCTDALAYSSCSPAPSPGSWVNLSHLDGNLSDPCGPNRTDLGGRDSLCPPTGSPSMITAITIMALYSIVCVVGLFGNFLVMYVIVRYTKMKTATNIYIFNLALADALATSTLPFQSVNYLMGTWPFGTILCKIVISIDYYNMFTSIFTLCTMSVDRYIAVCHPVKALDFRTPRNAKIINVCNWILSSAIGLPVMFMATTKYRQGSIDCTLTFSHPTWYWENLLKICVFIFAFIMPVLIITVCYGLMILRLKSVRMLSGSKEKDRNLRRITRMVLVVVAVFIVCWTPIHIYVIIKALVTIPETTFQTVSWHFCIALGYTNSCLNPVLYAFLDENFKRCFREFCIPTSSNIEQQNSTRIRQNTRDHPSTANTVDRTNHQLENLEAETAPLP
Quick reference for pKi among some compounds
Hey, just a heads up that pKi is the negative log base 10 of the concentration in molar.

# example entries with known answers
> print(dat)
                                 smiles.str  property.measured  reading
1  Oc1cccc2c1O[C@H]1CN(CCc3ccccc3)[C@@H]3CCC[C@]21C3                pKi     6.25
2  CN1CC[C@@]23C[C@@H]1CC[C@H]2Oc1c(O)cccc13                pKi     5.49
3  Oc1ccc2c(c1)[C@@]13CCN(CCc4ccccc4)[C@@H](CC[C@H]1O2)C3                pKi     6.13

Now turn to the next compound.
Query block: What value of measured pKi is listed for `Oc1cccc2c1O[C@@H]1CC[C@H]3C[C@@]21CCN3CCc1ccccc1` ?
Result block: 6.72

###

target: Kappa-type opioid receptor (Homo sapiens, UniProt P41145); test: Displacement of [125I]IOXY from human recombinant kappa opioid receptor expressed in CHO cells
Sequence (P41145 whole entry): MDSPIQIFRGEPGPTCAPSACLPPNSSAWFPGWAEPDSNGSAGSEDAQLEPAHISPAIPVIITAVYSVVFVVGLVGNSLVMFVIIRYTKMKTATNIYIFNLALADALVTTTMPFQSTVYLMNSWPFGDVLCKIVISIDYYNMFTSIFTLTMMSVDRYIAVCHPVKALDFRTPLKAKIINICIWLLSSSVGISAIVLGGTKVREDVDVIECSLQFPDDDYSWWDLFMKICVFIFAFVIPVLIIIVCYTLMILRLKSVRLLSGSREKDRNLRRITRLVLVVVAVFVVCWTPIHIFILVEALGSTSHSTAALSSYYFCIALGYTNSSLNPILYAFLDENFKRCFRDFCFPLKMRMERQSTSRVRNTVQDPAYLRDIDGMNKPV
PROPERTY MEASURED: pKi
Hey, just a heads up that pKi is the negative log base 10 of the concentration in molar.

> print(dat)
                                 smiles.str                     target.or.test.system  reading
1  CN1C[C@@H]2Oc3c(O)cccc3[C@@]23CCC[C@@H]1C3  Kappa-type opioid receptor (Homo sapiens, UniProt P41145)     5.32
2  Oc1cccc2c1O[C@@H]1CC[C@H]3C[C@@]21CCN3CCc1ccccc1  Kappa-type opioid receptor (Homo sapiens, UniProt P41145)     7.59
3  CN1CC[C@@]23C[C@@H]1CC[C@H]2Oc1c(O)cccc13  Kappa-type opioid receptor (Homo sapiens, UniProt P41145)     6.04

Query block: What value of measured pKi is listed for `Oc1ccc2c(c1)[C@@]13CCN(CCc4ccccc4)[C@@H](CC[C@H]1O2)C3` ?
Result block: 7.11

Query block: Lookup `Oc1cccc2c1O[C@H]1CN(CCc3ccccc3)[C@@H]3CCC[C@]21C3`
Result block: 6.70

Query block: Lookup `CN1C[C@@H]2Oc3ccc(O)cc3[C@@]23CCC[C@@H]1C3`
Result block: 6.21

###

target: Delta-type opioid receptor (Homo sapiens, UniProt P41143); test: Displacement of [125I]IOXY from human recombinant delta opioid receptor expressed in CHO cells
Sequence (P41143 whole entry): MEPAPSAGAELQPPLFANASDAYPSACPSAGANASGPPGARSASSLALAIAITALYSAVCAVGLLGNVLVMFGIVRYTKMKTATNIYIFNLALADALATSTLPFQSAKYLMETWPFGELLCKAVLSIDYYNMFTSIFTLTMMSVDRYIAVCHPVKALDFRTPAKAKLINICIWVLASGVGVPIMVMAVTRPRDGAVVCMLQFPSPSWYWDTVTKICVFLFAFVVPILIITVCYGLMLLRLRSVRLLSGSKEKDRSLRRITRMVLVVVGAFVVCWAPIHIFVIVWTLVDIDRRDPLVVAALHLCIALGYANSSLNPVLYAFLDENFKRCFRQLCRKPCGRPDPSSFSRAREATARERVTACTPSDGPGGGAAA
PROPERTY MEASURED: Ki (µM)
Entry rule: numbers only, all in µM.

# example entries with known answers
> print(dat)
                                 smiles.str  reading
1  Oc1cccc2c1O[C@H]1CN(CCc3ccccc3)[C@@H]3CCC[C@]21C3     2.84
2  Oc1cccc2c1O[C@@H]1CC[C@H]3C[C@@]21CCN3CCc1ccccc1     3.71
3  CN1C[C@@H]2Oc3ccc(O)cc3[C@@]23CCC[C@@H]1C3     2.78

Query block: What value of measured Ki is listed for `CN1C[C@@H]2Oc3c(O)cccc3[C@@]23CCC[C@@H]1C3` ?
Result block: 3.43

Query block: Lookup `Oc1ccc2c(c1)[C@@]13CCN(CCc4ccccc4)[C@@H](CC[C@H]1O2)C3`
Result block: 4.76

Numbers sourced from BindingDB's records for doi:10.1021/jm800913d.
